The following molecules are shown together with reported log10(MIC) values.
System: Staphylococcus aureus
Experiment: Antibacterial activity against Staphylococcus aureus ATCC 25923 assessed growth inhibition by micro broth dilution method
Assay type: functional
Log10 applied to MIC; unit prior to transform: µg/mL.

Study these solved cases before continuing.
- MOLECULE: "CCOC(=O)c1cn(Cc2cnc(Cl)s2)c2cc(F)c(F)cc2c1=O"
  MEASURE NAME: "log10(MIC)"
  OBSERVED: 0.60
- MOLECULE: "CCOC(=O)c1cn(Cc2ccc(C)cc2)c2cc([C-](C#N)C(=O)OCC)c(F)cc2c1=O.[Na+] (centres undefined)"
  MEASURE NAME: "log10(MIC)"
  OBSERVED: -0.30
- MOLECULE: "CCOC(=O)c1cn(Cc2ccccc2)c2cc(F)c(F)cc2c1=O"
  MEASURE NAME: "log10(MIC)"
  OBSERVED: 2.41
- MOLECULE: "CCOC(=O)c1cn(Cc2ccccc2)c2cc([C-](C#N)C(=O)OCC)c(F)cc2c1=O.[Na+] (centres undefined)"
  MEASURE NAME: "log10(MIC)"
  OBSERVED: -0.30
- MOLECULE: "CCOC(=O)c1cn(CC(=O)N2CCCCC2)c2cc([C-](C#N)C(=O)OCC)c(F)cc2c1=O.[Na+] (centres undefined)"
  MEASURE NAME: "log10(MIC)"
  OBSERVED: 1.81
- MOLECULE: "CCCCCCCCn1cc(C(=O)OCC)c(=O)c2cc(F)c(C(C#N)C(=O)OCC)cc21 (centres undefined)"
  MEASURE NAME: "log10(MIC)"
  OBSERVED: 0.00

Entry under review: CCOC(=O)c1cn(CC2CCCCC2)c2cc(C(C#N)C(=O)OCC)c(F)cc2c1=O (centres undefined) . Reported log10(MIC)?
0.00

Entry under review: CCCCCCn1cc(C(=O)OCC)c(=O)c2cc(F)c([C-](C#N)C(=O)OCC)cc21.[Na+] (centres undefined) . Reported log10(MIC)?
-0.30

Entry under review: CCOC(=O)c1cn(CC2CCCC2)c2cc([C-](C#N)C(=O)OCC)c(F)cc2c1=O.[Na+] (centres undefined) . Reported log10(MIC)?
0.90

Entry under review: "CCOC(=O)c1cn(CC)c2c(F)c(F)c(F)cc2c1=O" . Reported log10(MIC)?
1.81

Entry under review: "CCCCCn1cc(C(=O)OCC)c(=O)c2cc(F)c(F)cc21" . Reported log10(MIC)?
2.41

Entry under review: CCOC(=O)c1cn(CC)c2cc([C-](C#N)C(=O)OCC)c(F)cc2c1=O.[Na+] (centres undefined) . Reported log10(MIC)?
0.30

Entry under review: CCCn1cc(C(=O)OCC)c(=O)c2cc(F)c([C-](C#N)C(=O)OCC)cc21.[Na+] (centres undefined) . Reported log10(MIC)?
0.30

Entry under review: "CCOC(=O)c1cn(Cc2ccc(Cl)cc2Cl)c2cc(F)c(F)cc2c1=O" . Reported log10(MIC)?
2.41
